# Test system: MCF7
# PROCEDURE TEXT: percentage of EdU-negative (G0-arrested) nuclei per well, 72 h; higher = more G0 arrest;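 further: secreted proteins added to cultured cells, EdU pulse at the end, nuclei found by Hoechst imaging, EdU status from nuclear versus surrounding ring intensity ratio, PBS as neutral control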
# CONDITION PARAMETERS: protein concentration 0.225 µM; reference: sequence is the full UniProt precursor, the tested protein was the secreted form or ectodomain
Listed here are sequences together with their documented percentage of EdU-negative.
Quick reminder: number only, in %, skip the unit.

- SEQUENCE TEXT: "MFHQIWAALLYFYGIILNSIYQCPEHSQLTTLGVDGKEFPEVHLGQWYFIAGAAPTKEELATFDPVDNIVFNMAAGSAPMQLHLRATIRMKDGLCVPRKWIYHLTEGSTDLRTEGRPDMKTELFSSSCPGGIMLNETGQGYQRFLLYNRSPHPPEKCVEEFKSLTSCLDSKAFLLTPRNQEACELSNN"
  percentage of EdU-negative, %: 30.2
- SEQUENCE TEXT: "MSMSPTVIILACLGFFLDQSVWAHVGGQDKPFCSAWPSAVVPQGGHVTLRCHYRRGFNIFTLYKKDGVPVPELYNRIFWNSFLISPVTPAHAGTYRCRGFHPHSPTEWSAPSNPLVIMVTGLYEKPSLTARPGPTVRAGENVTLSCSSQSSFDIYHLSREGEAHELRLPAVPSINGTFQADFPLGPATHGETYRCFGSFHGSPYEWSDPSDPLPVSVTGNPSSSWPSPTEPSFKTGIARHLHAVIRYSVAIILFTILPFFLLHRWCSKKKDAAVMNQEPAGHRTVNREDSDEQDPQEVTYAQLDHCIFTQRKITGPSQRSKRPSTDTSVCIELPNAEPRALSPAHEHHSQALMGSSRETTALSQTQLASSNVPAAGI"
  percentage of EdU-negative, %: 25.7

Kindly review the next sequence as well.
Log: MCF7, sequence MKLKLKNVFLAYFLVSIAGLLYALVQLGQPCDCLPPLRAAAEQLRQKDLRISQLQAELRRPPPAPAQPPEPEALPTIYVVTPTYARLVQKAELVRLSQTLSLVPRLHWLLVEDAEGPTPLVSGLLAASGLLFTHLVVLTPKAQRLREGEPGWVHPRGVEQRNKALDWLRGRGGAVGGEKDPPPPGTQGVVYFADDDNTYSRELFEEMRWTRGVSVWPVGLVGGLRFEGPQVQDGRVVGFHTAWEPSRPFPVDMAGFAVALPLLLDKPNAQFDSTAPRGHLESSLLSHLVDPKDLEPRAANCTRVLVWHTRTEKPKMKQEEQLQRQGRGSDPAIEV , percentage of EdU-negative = 27.1

###

# Tested on: hTERT-HMEC
# PROCEDURE TEXT: percentage of EdU-negative (G0-arrested) nuclei per well, 72 h; higher = more G0 arrest
# CONDITION PARAMETERS: protein concentration 0.225 µM; reference: sequence is the full UniProt precursor, the tested protein was the secreted form or ectodomain
A collection of sequences and their measured percentage of EdU-negative
API: value field is a number in %; no unit string.

Some entries whose results are on file:
- SEQUENCE TEXT: "MKLMVLVFTIGLTLLLGVQAMPANRLSCYRKILKDHNCHNLPEGVADLTQIDVNVQDHFWDGKGCEMICYCNFSELLCCPKDVFFGPKISFVIPCNNQ"
  READOUT UNITS: "%"
  percentage of EdU-negative: 6.71
- SEQUENCE TEXT: "MAAEPLTELEESIETVVTTFFTFARQEGRKDSLSVNEFKELVTQQLPHLLKDVGSLDEKMKSLDVNQDSELKFNEYWRLIGELAKEIRKKKDLKIRKK"
  READOUT UNITS: "%"
  percentage of EdU-negative: 5.02
- SEQUENCE TEXT: "MNAFLLSALCLLGAWAALAGGVTVQDGNFSFSLESVKKLKDLQEPQEPRVGKLRNFAPIPGEPVVPILCSNPNFPEELKPLCKEPNAQEILQRLEEIAEDPGTCEICAYAACTGC"
  READOUT UNITS: "%"
  percentage of EdU-negative: 5.29

Continue with the sequence presented below.
Observed percentage of EdU-negative on hTERT-HMEC, entry MSMSPTVIILACLGFFLDQSVWAHVGGQDKPFCSAWPSAVVPQGGHVTLRCHYRRGFNIFTLYKKDGVPVPELYNRIFWNSFLISPVTPAHAGTYRCRGFHPHSPTEWSAPSNPLVIMVTGLYEKPSLTARPGPTVRAGENVTLSCSSQSSFDIYHLSREGEAHELRLPAVPSINGTFQADFPLGPATHGETYRCFGSFHGSPYEWSDPSDPLPVSVTGNPSSSWPSPTEPSFKTGIARHLHAVIRYSVAIILFTILPFFLLHRWCSKKKDAAVMNQEPAGHRTVNREDSDEQDPQEVTYAQLDHCIFTQRKITGPSQRSKRPSTDTSVCIELPNAEPRALSPAHEHHSQALMGSSRETTALSQTQLASSNVPAAGI , equals 4.83
